pEC50 overview
test system: RSV polymerase (Human respiratory syncytial virus A, UniProt P28887)
Sequence (P28887 whole entry, looked up): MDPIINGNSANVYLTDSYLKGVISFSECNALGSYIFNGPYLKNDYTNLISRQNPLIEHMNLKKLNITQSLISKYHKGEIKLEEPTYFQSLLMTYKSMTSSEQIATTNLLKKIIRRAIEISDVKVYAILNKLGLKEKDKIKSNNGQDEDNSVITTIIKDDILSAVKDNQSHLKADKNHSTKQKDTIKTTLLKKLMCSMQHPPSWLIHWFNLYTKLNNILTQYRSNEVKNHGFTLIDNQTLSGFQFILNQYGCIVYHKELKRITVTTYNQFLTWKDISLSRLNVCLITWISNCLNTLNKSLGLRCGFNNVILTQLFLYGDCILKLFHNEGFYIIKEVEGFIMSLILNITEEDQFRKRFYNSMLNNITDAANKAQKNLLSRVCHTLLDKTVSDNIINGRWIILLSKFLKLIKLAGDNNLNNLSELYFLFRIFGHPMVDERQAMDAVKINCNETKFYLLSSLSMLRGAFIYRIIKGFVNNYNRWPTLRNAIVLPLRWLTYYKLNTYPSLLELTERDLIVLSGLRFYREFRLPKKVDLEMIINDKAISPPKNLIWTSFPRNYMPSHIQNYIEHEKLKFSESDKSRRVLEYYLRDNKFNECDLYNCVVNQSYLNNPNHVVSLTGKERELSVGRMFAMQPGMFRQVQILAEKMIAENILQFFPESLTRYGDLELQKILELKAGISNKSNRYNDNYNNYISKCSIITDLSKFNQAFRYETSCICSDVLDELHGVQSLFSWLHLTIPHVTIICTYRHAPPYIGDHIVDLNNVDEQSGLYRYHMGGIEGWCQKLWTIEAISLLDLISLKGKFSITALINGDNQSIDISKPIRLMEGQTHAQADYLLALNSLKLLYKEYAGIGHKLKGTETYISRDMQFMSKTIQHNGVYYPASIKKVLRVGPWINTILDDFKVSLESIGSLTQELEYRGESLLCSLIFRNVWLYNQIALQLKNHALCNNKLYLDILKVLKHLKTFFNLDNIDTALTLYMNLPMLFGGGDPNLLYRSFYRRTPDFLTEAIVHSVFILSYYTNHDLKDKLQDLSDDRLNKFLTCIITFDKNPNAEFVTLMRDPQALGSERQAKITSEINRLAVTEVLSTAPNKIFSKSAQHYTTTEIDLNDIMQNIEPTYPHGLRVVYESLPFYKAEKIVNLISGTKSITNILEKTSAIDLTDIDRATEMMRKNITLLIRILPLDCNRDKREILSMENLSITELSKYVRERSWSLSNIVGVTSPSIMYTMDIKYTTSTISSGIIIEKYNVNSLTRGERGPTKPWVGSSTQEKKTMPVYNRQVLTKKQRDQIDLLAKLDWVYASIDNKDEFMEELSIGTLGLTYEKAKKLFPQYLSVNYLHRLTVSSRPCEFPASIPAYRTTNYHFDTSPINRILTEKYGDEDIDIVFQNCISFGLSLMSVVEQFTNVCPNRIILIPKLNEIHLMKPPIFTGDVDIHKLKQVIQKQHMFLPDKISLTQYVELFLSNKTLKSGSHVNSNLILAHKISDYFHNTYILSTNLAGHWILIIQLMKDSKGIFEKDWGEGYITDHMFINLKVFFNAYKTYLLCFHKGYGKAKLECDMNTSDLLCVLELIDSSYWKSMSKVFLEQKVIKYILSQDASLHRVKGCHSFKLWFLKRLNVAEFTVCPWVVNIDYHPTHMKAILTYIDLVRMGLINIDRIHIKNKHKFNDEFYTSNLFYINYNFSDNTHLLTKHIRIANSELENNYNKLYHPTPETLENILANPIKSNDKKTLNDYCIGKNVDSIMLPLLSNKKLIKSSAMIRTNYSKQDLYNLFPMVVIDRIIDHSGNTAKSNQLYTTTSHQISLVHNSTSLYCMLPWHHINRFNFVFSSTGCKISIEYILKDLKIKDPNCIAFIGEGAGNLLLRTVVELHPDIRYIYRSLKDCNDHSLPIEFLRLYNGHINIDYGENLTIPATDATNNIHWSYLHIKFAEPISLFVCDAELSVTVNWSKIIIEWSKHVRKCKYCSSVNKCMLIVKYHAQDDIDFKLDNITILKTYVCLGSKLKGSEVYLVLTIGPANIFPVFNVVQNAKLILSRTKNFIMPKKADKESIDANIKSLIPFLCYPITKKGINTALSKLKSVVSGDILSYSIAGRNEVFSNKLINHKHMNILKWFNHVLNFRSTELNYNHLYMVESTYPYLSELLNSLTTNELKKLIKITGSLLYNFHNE
assay protocol: biochemical
pEC50: −log10 of the molar value.

May I ask what pEC50 has been recorded for CSC[C@]1(COP(=O)(O)OP(=O)(O)OP(=O)(O)O)O[C@@H](n2ccc(N)nc2=O)[C@@H](F)[C@H]1O [Compound 97b] ?
> 5.70

May I ask what pEC50 has been recorded for CC(F)[C@]1(COP(=O)(O)OP(=O)(O)OP(=O)(O)O)O[C@@H](n2ccc(N)nc2=O)[C@@H](F)[C@H]1O (stereo partly drawn) [Compound 36e] ?
> 5.70

May I ask what pEC50 has been recorded for Nc1ncnc2c1ncn2[C@@H]1O[C@](CCl)(COP(=O)(O)OP(=O)(O)OP(=O)(O)O)[C@@H](O)[C@H]1F [Compound 98b] ?
> 5.70

###

Tested on: RSV A2 (ATCC: VR-1540)
assay protocol: RSV RT-PCR based assay in HEp-2 cells
Type: cell-based
conditions used: human respiratory syncytial virus, HEp-2, 96 h
pEC50: −log10 of the molar value.
pEC50 overview

molecule	pEC50
C#C[C@]1(CO)O[C@@H](n2ccc(N)nc2=O)[C@H](F)[C@@H]1O	4.00 to 5.00

Below: the item to evaluate.
May I ask what pEC50 has been recorded for CC[C@]1(COP2(=O)OCc3cccc(C)c3O2)O[C@@H](n2ccc(N)nc2=O)[C@H](F)[C@@H]1O (some centres unmarked) [Compound 14a] ?
> 6.00

###

pEC50 overview
Tested on: human PIV type 3
assay protocol: Parainfluenza virus-3 (PIV-3) plaque assay in MA-104 cells
Format: cell-based
conditions used: MA104, 72 hours infection
pEC50: −log10 of the molar value.

structure notation	pEC50
CC[C@]1(CO)O[C@@H](n2ccc(N)nc2=O)[C@H](F)[C@@H]1O	> 4.70

May I ask what pEC50 has been recorded for Nc1ccn([C@@H]2O[C@@](CO)(CCl)[C@@H](O)[C@H]2F)c(=O)n1 ?
> 4.70

###

test system: RSV polymerase (Human respiratory syncytial virus A)
assay protocol: biochemical
endpoint name: EC50

Some compounds with known EC50 results, for comparison:
compound	endpoint name	result
Nc1ccn([C@@H]2O[C@](CBr)(COP(=O)(O)OP(=O)(O)OP(=O)(O)O)[C@H](O)[C@@H]2F)c(=O)n1 [Compound 97c]	EC50	< 2000 nM
CC[C@]1(COP(=O)(O)OP(=O)(O)OP(=O)(O)O)O[C@@H](n2ccc(N)nc2=O)[C@H](F)[C@@H]1O [Compound 36a]	EC50	< 2000 nM
Nc1ccn([C@@H]2O[C@](CF)(COP(=O)(O)OP(=O)(O)OP(=O)(O)O)[C@@H](O)[C@H]2F)c(=O)n1 [Compound 56c]	EC50	< 2000 nM
Nc1ncnc2c1ncn2[C@@H]1O[C@](CF)(COP(=O)(O)OP(=O)(O)OP(=O)(O)O)[C@@H](O)[C@H]1F [Compound 98c]	EC50	< 2000 nM
CC(C)CC[C@]1(COP(=O)(O)OP(=O)(O)OP(=O)(O)O)O[C@@H](n2ccc(N)nc2=O)[C@H](F)[C@@H]1O [Compound 36i]	EC50	2000 to 10000 nM

May I ask what EC50 has been recorded for C=C(C)[C@]1(COP(=O)(O)OP(=O)(O)OP(=O)(O)O)O[C@@H](n2ccc(N)nc2=O)[C@H](F)[C@@H]1O [Compound 36j] ?
2000 to 10000 nM

May I ask what EC50 has been recorded for Nc1nc(=O)n([C@@H]2O[C@](CCl)(COP(=O)(O)OP(=O)(O)OP(=O)(O)O)[C@H](O)[C@@H]2F)cc1F [Compound 97g] ?
< 2000 nM

May I ask what EC50 has been recorded for COC[C@]1(COP(=O)(O)OP(=O)(O)OP(=O)(O)O)O[C@@H](n2ccc(N)nc2=O)[C@@H](F)[C@H]1O [Compound 97a] ?
< 2000 nM

###

test system: UniProt P28887
assay protocol: biochemical
endpoint name: EC50

compound	endpoint name	result
C#C[C@]1(COP(=O)(O)OP(=O)(O)OP(=O)(O)O)O[C@@H](n2ccc(N)nc2=O)[C@H](F)[C@@H]1O [Compound 36c]	EC50	< 2000 nM
CC(F)[C@]1(COP(=O)(O)OP(=O)(O)OP(=O)(O)O)O[C@@H](n2ccc(N)nc2=O)[C@H](F)[C@@H]1O (stereo partly shown) [Compound 56e]	EC50	< 2000 nM
Nc1ccn([C@@H]2O[C@@](COP(=O)(O)OP(=O)(O)OP(=O)(O)O)(C3CC3)[C@@H](O)[C@H]2F)c(=O)n1 [Compound 56d]	EC50	< 2000 nM

Below: the item to evaluate.
May I ask what EC50 has been recorded for O=c1ccn([C@@H]2O[C@](CCl)(COP(=O)(O)OP(=O)(O)OP(=O)(O)O)[C@@H](O)[C@H]2F)c(=O)[nH]1 [Compound 56a] ?
2000 to 10000 nM
